meta.source: patent US12686690B2

- Target: hOX2R (Homo sapiens)
- Construct: expressed in transfected cells; host or cells: CHO cells (G418 selection)
- Sequence (O43614 1-444): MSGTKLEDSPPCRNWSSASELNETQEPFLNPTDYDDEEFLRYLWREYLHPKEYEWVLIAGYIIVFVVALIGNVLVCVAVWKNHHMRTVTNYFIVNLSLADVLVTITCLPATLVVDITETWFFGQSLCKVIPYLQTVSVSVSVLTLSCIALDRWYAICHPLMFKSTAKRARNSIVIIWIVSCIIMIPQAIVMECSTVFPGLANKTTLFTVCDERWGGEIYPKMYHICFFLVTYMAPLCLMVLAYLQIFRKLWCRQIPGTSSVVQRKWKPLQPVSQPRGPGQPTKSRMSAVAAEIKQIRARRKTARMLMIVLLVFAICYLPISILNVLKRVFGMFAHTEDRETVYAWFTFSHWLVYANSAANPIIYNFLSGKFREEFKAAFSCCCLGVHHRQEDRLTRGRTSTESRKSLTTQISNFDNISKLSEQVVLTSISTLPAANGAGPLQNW
- Protocol Details: hOX2R IPone assay (orexin receptor agonism)
- Assay type: cell-based
- Condition: maximal activation, IPone readout
Metric Name: hOX2R_Ipone max %act

• CCN1C(=O)NCCOCCOc2nc(cn3ccnc23)-c2cccc(c2)[C@H]1C [Example 2] = 64.8%
• CCN1C(=O)N[C@@H](CCC(F)(F)F)CCCCCOc2nc(cn3ncnc23)-c2ccnc(c2)[C@H]1C [Example 142] = 100.3%
• CCN1C(=O)NCCc2nc(no2)COc2nc(cn3ccnc23)-c2cccc(c2)[C@H]1C [Example 24] = 61.5%
• CCN1C(=O)N[C@@H](C)CCCC(F)(F)COc2nc(cn3ccnc23)-c2cc(ncc2OC)[C@H]1C [Example 221] = 90.75%

====

- Target: hOX2R (Homo sapiens)
- Construct: expressed in transfected cells; host or cells: CHO cells (G418 selection)
- Sequence (O43614 1-444): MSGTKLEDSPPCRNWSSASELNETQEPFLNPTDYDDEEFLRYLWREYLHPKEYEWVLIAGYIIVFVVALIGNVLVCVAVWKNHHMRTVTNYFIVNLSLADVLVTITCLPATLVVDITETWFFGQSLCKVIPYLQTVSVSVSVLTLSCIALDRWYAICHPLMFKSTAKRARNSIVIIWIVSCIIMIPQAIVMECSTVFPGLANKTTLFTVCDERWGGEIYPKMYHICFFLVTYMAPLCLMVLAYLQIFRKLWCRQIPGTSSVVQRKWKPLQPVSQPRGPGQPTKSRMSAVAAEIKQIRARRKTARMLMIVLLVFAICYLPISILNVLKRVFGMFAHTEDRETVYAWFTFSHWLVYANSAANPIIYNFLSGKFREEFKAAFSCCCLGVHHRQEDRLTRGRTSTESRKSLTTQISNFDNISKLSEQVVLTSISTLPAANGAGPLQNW
- Protocol Details: hOX2R IPone assay (orexin receptor agonism)
- Assay type: cell-based
- Condition: orexin receptor agonist, IPone readout; read-out: hOX2R_IPone EC50
Metric Name: EC50 (nM)

* CCN1C(=O)N[C@@H](CC(F)(F)F)CCCCCOc2nc(cn3ccnc23)-c2ccnc(c2)[C@H]1C | 13.1
* CCN1C(=O)N[C@@H](CCC(F)(F)F)CCCCCOc2nc(cn3ccnc23)-c2cc(cc(C)n2)[C@@H]1C [Example 118A] | 183
* CCN1C(=O)N[C@@H](CCC(F)(F)F)CCCCCOc2nc(cn3ccnc23)-c2nc(cnc2OC)[C@H]1C | 1.08
* CCN1C(=O)N[C@@H](CCC(C)(F)F)CCOCCOc2nc(cn3ncnc23)-c2cc(cnc2OC)[C@H]1C | 1.7
* CCN1C(=O)NC(CC2CC(F)(F)C2)CCCCCOc2nc(cn3ccnc23)-c2cc(ncc2OC)[C@H]1C (single isomer, unassigned) [Example 69A] | 6.6
* CCN1C(=O)NC(CCC(F)(F)F)CC(C)CCOc2nc(cn3ccnc23)-c2cccc(c2)[C@H]1C (single isomer, unassigned) [Example 48B] | 88.8
* CCN1C(=O)NCCCCCOc2nc(cn3ccnc23)-c2cccc(c2)[C@H]1C | 42
* CCN1Cc2cc(c(OC)cn2)-c2cn3ccnc3c(n2)OCCCC[C@H](CCC(F)(F)F)NC1=O | 14.1
* CCN1C(=O)NC(CC(O)C(F)(F)F)CCCCCOc2cn3ncnc3c(n2)-c2cc(ncc2OC)C1C (stereo not drawn) [Example 131] | 0.77
* CCN1C(=O)N[C@@H](CCC(F)(F)F)CCCCCOc2nc(cn3cc(C)nc23)-c2cc(nc3ccoc23)C1C (single isomer, unassigned) [Example 75A] | 528
* CCN1C(=O)N[C@@H](CCC(C)(F)F)CCOCCOc2nc(cn3ncnc23)-c2ccnc(c2)[C@H]1C | 4.15
* CCN1C(=O)N[C@@H](CCC(F)(F)F)CCCCCOc2nc(cn3ccnc23)-c2nc(ncc2C)[C@@H]1C [Example 93A] | 167
* CCN1C(=O)N[C@@H](CCC(F)(F)F)CCCCCOc2nc(cn3ccnc23)-c2nc(co2)C1C (single isomer, unassigned) [Example 105A] | 1360
* CCN1C(=O)NCCCN2CCCC2COc2nc(cn3ccnc23)-c2cccc(c2)[C@H]1C (mixture of isomers) | 3840
* CCN1C(=O)N[C@@H](CCC(F)(F)F)CCCCCOc2cc(nn3cc(C)nc23)-c2cc(ncc2OC)[C@H]1C | 15.1
* CCN1C(=O)NC(CC2CCC2)CCCCCOc2nc(cn3ccnc23)-c2cc(ncc2OC)[C@H]1C (single isomer, unassigned) [Example 61A] | 34.6
* CCN1C(=O)N[C@@H](CCC(F)(F)F)CCOCCOc2nc(cn3ncnc23)-c2c(OC)cnc(c2F)C1C (stereo partly drawn) | 8.24
* CCN1C(=O)NC(CCOC)CCCCCOc2nc(cn3ccnc23)-c2cc(ncc2OC)[C@H]1C (single isomer, unassigned) [Example 56A] | 32
* CCN1C(=O)NC(CC2(C(F)F)CC2)CCCCCOc2nc(cn3ccnc23)-c2cc(ncc2OC)[C@H]1C (single isomer, unassigned) [Example 70A] | 16.5
* CCN1C(=O)N[C@@H](CCC(F)(F)F)CCCCCOc2nc(cn3ccnc23)-c2ccnc(c2)[C@H]1C | 1.3
* CCN1C(=O)N[C@@H](CCC(F)(F)F)CCCCCOc2nc(cn3ccnc23)-c2cc(ncc2C)[C@H]1C | 1
* CCN1C(=O)N[C@@H](CCC(F)(F)F)CCCCCOc2cc(cc3ccnn23)-c2nc(cnc2OC)C1C (single isomer, unassigned) [Example 80A] | 370
* CCN1C(=O)NC(CCC(C)(C)F)CCCCCOc2nc(cn3ccnc23)-c2cc(ncc2OC)[C@H]1C (single isomer, unassigned) [Example 71A] | 4.2
* CCN1C(=O)NC(CCC(F)(F)F)CCCCCOc2cc(n3nccc3c2)-c2ccnc(c2)C1C (stereo not drawn) | 1.32
* CCN1C(=O)N[C@@H](C(F)(F)F)CCCCCOc2nc(cn3ccnc23)-c2cc(ncc2OC)[C@H]1C | 20.9
* CCN1C(=O)NC(CC2(C(F)F)CC2)CCCCCOc2nc(cn3ccnc23)-c2cc(ncc2OC)[C@H]1C (single isomer, unassigned) [Example 70B] | 1.1
* CCN1C(=O)NC(CCC(F)(F)F)CCOCCOc2nc(cn3ccnc23)-c2cc(ncc2OC)[C@H]1C (single isomer, unassigned) [Example 6A] | 11.9

====

- Target: hOX2R (Homo sapiens)
- Construct: expressed in transfected cells; host or cells: CHO cells (G418 selection)
- Protocol Details: hOX2R IPone assay (orexin receptor agonism)
- Type: cell-based
- Condition: maximal activation, IPone readout
Metric Name: hOX2R_Ipone max %act (%)

• CCN1C(=O)N[C@@H](CCC(F)(F)F)C/C=C/CCOc2nc(cc3cccnc23)-c2cc(ncc2OC)[C@H]1C = 104.4
• CCN1C(=O)N[C@@H](CCC(F)(F)F)CCCCCOc2nc(cn3ccnc23)-c2cc(c(C)cn2)C1C (single isomer, unassigned) [Example 92A] = 67.1
• CCN1C(=O)N[C@@H](CCC(F)(F)F)CCCCOc2nc(cn3cc(C)nc23)-c2cc(ncc2OC)C1C(F)(F)F (single isomer, unassigned) [Example 36B] = 101.5
• CCN1C(=O)N[C@@H](CCC(F)(F)F)CCCCCOc2nc(cn3ccnc23)-c2cc(C)nc(c2)[C@@H]1C [Example 107A] = 92.7
• CCN1C(=O)NC2CN(CCCOc3nc(cn4ccnc34)-c3cccc(c3)[C@H]1C)CC2(F)F (mixture of isomers) = 101.8
• CCN1C(=O)NC(c2csc(C)n2)CCCCCOc2nc(cn3ccnc23)-c2cc(cnc2OC)C1C (centres unmarked) = 104.9
• CCN1C(=O)NC(CC2CCCC2)CCCCCOc2nc(cn3ccnc23)-c2cc(ncc2OC)[C@H]1C (single isomer, unassigned) [Example 65A] = 102.4
• CCN1C(=O)NC(C(C)(C)C)CCCCCOc2nc(cn3ccnc23)-c2cc(ncc2OC)[C@H]1C (single isomer, unassigned) [Example 63A] = 98.43
• CCN1C(=O)N[C@@H](CCC(F)(F)F)CCCCCOc2nc(cn3cc(C)nc23)-c2cc(nc3ccoc23)C1C (single isomer, unassigned) [Example 75B] = 101.4
• CCN1C(=O)NC(CC(F)F)CCCCCOc2nc(cn3ccnc23)-c2cc(ncc2OC)[C@H]1C (some centres unmarked) = 102.3
• CCN1C(=O)N[C@@H](CCC(F)(F)F)CCCCCc2cc(cn3ccnc23)-c2nc(ccc2OC)[C@H]1C = 100.1
• CCN1C(=O)NC(CC(O)C(F)(F)F)CCCCCOc2cn3ncnc3c(n2)-c2cc(ncc2OC)C1C (centres unmarked) [Example 130] = 102
• CCN1C(=O)N[C@@H](CCC(F)(F)F)CCOCCOc2nc(cn3ccnc23)-c2cc(ccn2)[C@H]1C = 101.7
• CCN1C(=O)NC(CC2CC2(F)F)CCCCCOc2nc(cn3ccnc23)-c2cc(ncc2OC)[C@H]1C (single isomer, unassigned) [Example 59A] = 101.6
• CCN1C(=O)N[C@@H](CCC(F)(F)F)CCCCCCc2nc(cn3ccnc23)-c2cc(ncc2OC)[C@H]1C = 100.1
• CCN1C(=O)N[C@@H](CCC(F)(F)F)CCCCCOc2nc(cn3ccnc23)C2=NC=C(O2)C1C (single isomer, unassigned) [Example 104B] = 101.1
• CCN1C(=O)N[C@@H](CCC(F)(F)F)CCCCCOc2cc(cc3cccnc23)-c2cc(ncc2OC)[C@H]1C = 99.72
• CCN1C(=O)NCCCOCCOc2nc(cn3ccnc23)-c2cccc(c2)[C@H]1C = 101
• CCN1C(=O)NCCC2CCC(C2)Oc2nc(cn3ccnc23)-c2cccc(c2)C1C (centres unmarked) = 99.5
• CCN1C(=O)N[C@@H](CCC(F)(F)F)CCCCCOc2nc(cn3ccnc23)-c2cc(nc3ccoc23)C1C (single isomer, unassigned) [Example 74B] = 101.2
• CCN1C(=O)N[C@@H](CCC(F)(F)F)CCCCCOc2nc(nn3ccnc23)-c2cc(cnc2OC)[C@H]1C = 100.5
• CCCC1CCCCCOc2nc(cn3ccnc23)-c2cc(ncc2OC)[C@@H](C)N(CC)C(=O)N1 (single isomer, unassigned) [Example 54A] = 102
• CCN1C(=O)NC2CN(CCCCOc3nc(cn4ccnc34)-c3cc(ncc3OC)[C@H]1C)CC2C(F)(F)F (single isomer, unassigned) = 102.9
• CCC1CCCCCOc2nc(cn3ccnc23)-c2cc(ncc2OC)[C@@H](C)N(CC)C(=O)N1 (single isomer, unassigned) [Example 52A] = 97
• CCN1C(=O)N[C@@H](CCC(C)(F)F)CCOCCOc2nc(cn3ncnc23)-c2cc(cnc2OC)[C@H]1C = 101.7
• CCN1C(=O)NCCCN2CCCC2COc2nc(cn3ccnc23)-c2cccc(c2)[C@H]1C (mixture of isomers) = 79.4
